biological target: human NKp46 (full length, on cells) (human, UniProt O76036 22-304); test: cell-based or functional assay
Sequence (O76036 22-304 Q82K): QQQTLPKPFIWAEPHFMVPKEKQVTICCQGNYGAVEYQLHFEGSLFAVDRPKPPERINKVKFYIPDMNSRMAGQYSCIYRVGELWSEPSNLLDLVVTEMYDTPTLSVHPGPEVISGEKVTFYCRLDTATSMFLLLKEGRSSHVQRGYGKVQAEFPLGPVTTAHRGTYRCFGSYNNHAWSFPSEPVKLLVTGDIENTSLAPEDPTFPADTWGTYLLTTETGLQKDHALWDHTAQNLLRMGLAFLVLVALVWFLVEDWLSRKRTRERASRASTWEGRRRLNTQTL
Label 0 if Top mean fluorescence intensity (Top MFI), NK cell activation (CD107a) falls below 30; label 1 in every other case.

[[record]]
binder = "H1-PC11 humanized antibody (antibody, human IgG1, V domains shown, not shown: constant region of human IgG1) VH: EVQLVESGGGLVQPGGSLRLSCAASPYSANSFSMAWFRQAPGKGLEGVACIQAESGSTNVAPSVKGRFTISQDNSKNTLYLQMNSLRAEDTAVYYCAAFKRNVGGCELRPEHWRFWGQGTLVTVSS"
group_label = 0

[[record]]
binder = "H3-PC11 humanized antibody (antibody, human IgG1, V domains shown, not shown: constant region of human IgG1) VH: EVQLVESGGGLVQPGGSLRLSCAASPYSANSFSMAWFRQAPGKGREGVACIQAESGSTNVAPSVKGRFTISQDNSKNTLYLQMNSLRAEDTAVYYCAAFKRNVGGCELRPEHWRFWGQGTLVTVSS"
group_label = 0

[[record]]
binder = "H3-PA31 humanized antibody (antibody, human IgG1, V domains shown, not shown: constant region of human IgG1) VH: EVQLVESGGGLVQPGGSLRLSCAVSGRTFSRLPMGWFRQAPGKGREFVAAISWSSSTTYYADSVKGRFTISRDNSKNTAYLQMNSLRAEDTAVYYCAAVGGSLDYSATVVYTAARAYADWGQGTLVTVSS"
group_label = 1

[[record]]
binder = "H5-PC11 humanized antibody (antibody, human IgG1, V domains shown, not shown: constant region of human IgG1) VH: EVQLVESGGGLVQPGGSLRLSCAPSPYSANSFSMAWFRQAPGKEREGIACIQAESGSTNVAPSVKGRFTISQDNSKNTLYLQMNSLRAEDTAVYYCAAFKRNVGGCELRPEHWRFWGQGTLVTVSS"
group_label = 0

[[record]]
binder = "H2-PA45 humanized antibody (antibody, V domains shown, not shown: constant region of human IgG1) VH: EVQLVESGGGLVQPGGSLRLSCAASGRTFSRLPMAWFRQAPGKGLEFVAAISWSGGSTYYADSMKGRFTISRDNSKNTAYLQMNSLRAEDTAVYYCAAVGDSAPYSATIVYTDARAYAYWGQGTLVTVSS"
group_label = 1

[[record]]
binder = "H2-PC11 humanized antibody (antibody, human IgG1, V domains shown, not shown: constant region of human IgG1) VH: EVQLVESGGGLVQPGGSLRLSCAPSPYSANSFSMAWFRQAPGKGLEGIACIQAESGSTNVAPSVKGRFTISQDNSKNTLYLQMNSLRAEDTAVYYCAAFKRNVGGCELRPEHWRFWGQGTLVTVSS"
group_label = 0

[[record]]
binder = "H2-PA31 humanized antibody (antibody, human IgG1, V domains shown, not shown: constant region of human IgG1) VH: EVQLVESGGGLVQPGGSLRLSCAVSGRTFSRLPMGWFRQAPGKGLEFVAAISWSSSTTYYADSVKGRFTISRDNSKNTAYLQMNSLRAEDTAVYYCAAVGGSLDYSATVVYTAARAYADWGQGTLVTVSS"
group_label = 1

